Origin of the recorded values: PubChem BioAssay AID1347131

- protocol-notes: qHTS Assay for Foot and Mouth Disease Virus Antivirals: Primary Screen against the MLPCN compound library; note: nearly all actives have a fitted effect of over 55% in size
- particulars: FMDV antiviral cell-based qHTS; series mostly up to 57.9 µM
In all, about 410,000 compounds went through this assay and about 2,000 (0.49%) were called active. About 8% were inconclusive and are not listed. Calls come from the whole dose curve; tested in HEK293 reporter line. Shown is part of a subset that was picked to be rich in actives.
Return exactly one item of true (1) for active, false (0) for inactive

Prompt line: Hi, sorry to bother you, what did the test record for O=C(/C=C/c1cccs1)N1CCC2(CC1)Oc1ccc(Cl)cc1C(=O)C21CC(c2cccnc2)=NO1 (stereo unspecified) ?
Response line: false (0)

Prompt line: I would be grateful if you could indicate the recorded call for `O=C(Nc1ccccc1)/C(=C/c1ccccc1)c1ccccc1` .
Response line: false (0)

Prompt line: Assay result, entry `Cc1ccc(Cl)cc1NC(=O)c1cc2ccccc2cc1O` — outcome?
Response line: false (0)

Prompt line: Hi, sorry to bother you, what did the test record for `O=C(/C=C/Nc1ccccc1F)c1ccc(Br)cc1` ?
Response line: true (1)

Prompt line: Outcome? `O=C(/C=C\Nc1ccc2c(c1)OCO2)c1ccc2c(c1)OCO2`
Response line: true (1)

Prompt line: What outcome does the record of this test show for `Cc1ccc(N/C=C/C(=O)c2ccccc2)cc1C` ?
Response line: true (1)

Prompt line: Which outcome did this test record for the molecule `Cc1ccc(NC(=O)C(=O)NCC2(c3ccccc3)CCCC2)cc1C` ?
Response line: false (0)

---

- protocol-notes: qHTS Assay for Foot and Mouth Disease Virus Antivirals: Primary Screen against the MLPCN compound library; note: nearly all actives have a fitted effect of over 55% in size
- particulars: FMDV antiviral cell-based qHTS; series mostly up to 57.9 µM
The whole screen tested about 410,000 compounds, of which about 2,000 (0.49%) were called active. Not shown: some 8% with an inconclusive outcome. The call rests on the fitted dose curve; tested in HEK293 reporter line. The entries come from a sample that favours actives as a whole.
Response enum: 1.0 (active), 0.0 (inactive)

Use the examples below as a reference point.
compound: O=C(Nc1cccc(N2C(=O)C3CCCCC3C2=O)c1)c1ccccc1 (stereo unspecified)
category: 1.0
//
compound: Cc1cc(Br)cc(C)c1OCC(=O)NNC(=O)c1cccs1
category: 0.0
//
compound: Cc1ccc(-n2ncc3c(NC4CCCCC4)ncnc32)cc1
category: 1.0
//
compound: Cc1ccc(-n2ncc3c(N4CCCCCC4)ncnc32)cc1
category: 0.0
//
compound: Cc1ccc(-n2ncc3c(NC4CCCC4)ncnc32)cc1
category: 1.0
//
compound: Cc1ccc(-n2ncc3c(N4CCN(c5ccc(F)cc5)CC4)ncnc32)cc1
category: 0.0
//
compound: O=C(Nc1ccc(Br)cc1)c1cccc(N2C(=O)C3CCCCC3C2=O)c1 (stereo unspecified)
category: 0.0
//
compound: COc1cccc(Oc2cnc(N)nc2-c2ccc(OC)cc2O)c1
category: 0.0

Prompt line: I would be grateful if you could indicate the recorded call for Cc1cc(C)cc(NC(=O)c2ccc(N3C(=O)C4CCCCC4C3=O)cc2)c1 (stereo unspecified) .
Response line: 0.0

Prompt line: In this assay, the call recorded for `COc1ccccc1N1CCN(c2ncnc3c2cnn3-c2ccc(C)cc2)CC1` was what?
Response line: 0.0

Prompt line: What classification did `Cc1c(NC(=O)CN2CCN(c3cccc(Cl)c3)CC2)c(=O)n(-c2ccccc2)n1C` end up with in this test?
Response line: 0.0

---

- protocol-notes: qHTS Assay for Foot and Mouth Disease Virus Antivirals: Primary Screen against the MLPCN compound library; note: nearly all actives have a fitted effect of over 55% in size; note: potency is the fitted concentration of half-maximal effect
- particulars: FMDV antiviral cell-based qHTS; series mostly up to 57.9 µM
The campaign covered roughly 410,000 compounds. About 2,000 (0.49%) were called active. Roughly 8% stayed inconclusive and do not appear here. The list comes from a sample in which actives are over-represented; it also holds close analogues and randomly drawn compounds.
metric: Potency

compound: COc1ccc(-c2nsc3c(N4CCCC4)ncnc23)cc1
Potency: 22.4 µM (active)
--
compound: O=C(/C=C\Nc1ccccn1)c1ccccc1
Potency: 10 µM (active)
--
compound: CCN1C(=O)[C@H]2[C@@H](c3ccc(-c4ccc(Cl)c(Cl)c4)c(OC)c3)N[C@@](C)(C(=O)OC)[C@H]2C1=O
Potency: inactive
--
compound: CC(C)c1ccc(NC(=O)c2cc(S(=O)(=O)N(C)C3CCCCC3)ccc2F)cc1
Potency: inactive
--
compound: COc1cccc(/C=N/Nc2ncnc(N)c2[N+](=O)[O-])c1OC
Potency: 7.94 µM (active)

Prompt line: # get_value(readout='Potency', item= `O=S(=O)(c1cccs1)N1CCN(CCc2ccccc2)CC1` )
Response line: inactive

Prompt line: # Potency lookup, item `CCOC(=O)c1sc2ccc(S(=O)(=O)N3CCCCC3)cc2c1N`
Response line: 17.8 µM (active)

Prompt line: Requested field: Potency. Item: `NC(=O)COc1ccccc1/C=C1/SC(=O)N(CC(=O)N2CCc3ccccc3C2)C1=O`
Response line: inactive

Prompt line: Dear colleague, I am looking for the recorded Potency of the following compound: `COCC(=O)N1CCC2(CC1)CCN(c1ccc(-c3ccccc3)cc1)CC2`
Response line: inactive
